tested.on: Vascular endothelial growth factor receptor 3 (Homo sapiens)
stated.conditions: at 1 µM
readout: inhibition
Write the figure, then the unit, nothing else.

Would you please look over these solved cases?
chem.smiles: COC(=O)Nc1nc2ccc(Oc3ccc(NC(=O)Nc4cc(C(F)(F)F)ccc4F)cc3)cc2s1
obs.value: 52.8%

chem.smiles: CNC(=O)c1ncccc1Nc1nc(Nc2cc3c(cc2OC)CCCN3C(=O)CN(C)C)nc2[nH]ccc12
obs.value: 2.27%

chem.smiles: OCCCNc1nccc(-c2c(-c3ccc(F)cc3)nn3cc(C(F)(F)F)ccc23)n1
obs.value: 2.54%

chem.smiles: O=C(O[C@H]1CN[C@H](C#Cc2cc3ncnc(Nc4ccc5c(ccn5Cc5cc(F)ccc5F)c4)c3s2)C1)N1CCOCC1
obs.value: 4.77%

Look up inhibition for the entries below, preserving their order.
1. O=C1Nc2ccccc2/C1=C1\CCc2cc(O)ccc21
2. CS(=O)(=O)CCNCc1ccc(-c2ccc3ncnc(Nc4ccc(OCc5ccccc5)cc4)c3c2)o1

1: 24.6%; 2: 4.64%

----------
What inhibition was measured for each of the following?
tested.on: Serine/threonine-protein kinase PAK 6 (Homo sapiens)
stated.conditions: at 0.1 µM
Numbers only, in %.

Would you please look over these solved cases?
chem.smiles: N#Cc1ccc2c(-c3ccnc(NC4CC4)n3)c(-c3ccc(F)cc3)nn2c1
quantity.unit: %
obs.value: -5.39
//
chem.smiles: COc1cc(N2CCN(C(C)C)CC2)ccc1Nc1nc(Nc2cccc(F)c2C(=O)O)c2cc[nH]c2n1
quantity.unit: %
obs.value: 0.22
//
chem.smiles: CN1CCC(n2cnc(-c3ccc(F)cc3)c2-c2ccnc(NCCO)n2)CC1
quantity.unit: %
obs.value: 3.38
//
chem.smiles: CCS(=O)(=O)c1ccc(OC)c(Nc2ncc(-c3cccc(F)c3)o2)c1
quantity.unit: %
obs.value: -7.56
//
chem.smiles: CN1CCN(Cc2ccc(-c3cc4ncnc(Nc5ccc(OCc6cccc(F)c6)c(Cl)c5)c4s3)o2)CC1
quantity.unit: %
obs.value: -1.82

Look up inhibition for the entries below, preserving their order.
1. Cn1c(-c2nonc2N)nc2cnccc21
2. O=C(O[C@H]1CN[C@H](C#Cc2cc3ncnc(Nc4ccc5c(ccn5Cc5cc(F)ccc5F)c4)c3s2)C1)N1CCOCC1
3. COC(=O)Nc1nc2ccc(Oc3ccc(NC(=O)Nc4cc(C(F)(F)F)ccc4F)cc3)cc2s1
4. COc1c(C(N)=O)cc(-c2ccc(Cl)cc2)cc1-c1ccc(S(N)(=O)=O)cc1
5. COc1cccc(Nc2nccc(-c3cnn4ncccc34)n2)c1
6. Cc1ccc(-c2cc3c(NC(=O)C4CC4)ncnc3o2)cc1
7. CC1(C)CC(n2cnc(-c3ccc(F)cc3)c2-c2ccnc(N)n2)CC(C)(C)N1

1: 3.95; 2: -1.93; 3: 2.82; 4: -7.76; 5: 1.43; 6: 4.74; 7: 1.59

Look up inhibition for the entries below, preserving their order.
1. CNC(=O)c1cncc(/C=C/c2ccccc2C)c1
2. CS(=O)(=O)CCNCc1ccoc1-c1ccc2ncnc(Nc3ccc(OCc4ccccc4)cc3)c2c1

[-2.91, -5.6]

----------
Test system: Tyrosine-protein kinase ABL1 (Homo sapiens), P00519 [E255K]
Sequence (P00519 whole entry E255K): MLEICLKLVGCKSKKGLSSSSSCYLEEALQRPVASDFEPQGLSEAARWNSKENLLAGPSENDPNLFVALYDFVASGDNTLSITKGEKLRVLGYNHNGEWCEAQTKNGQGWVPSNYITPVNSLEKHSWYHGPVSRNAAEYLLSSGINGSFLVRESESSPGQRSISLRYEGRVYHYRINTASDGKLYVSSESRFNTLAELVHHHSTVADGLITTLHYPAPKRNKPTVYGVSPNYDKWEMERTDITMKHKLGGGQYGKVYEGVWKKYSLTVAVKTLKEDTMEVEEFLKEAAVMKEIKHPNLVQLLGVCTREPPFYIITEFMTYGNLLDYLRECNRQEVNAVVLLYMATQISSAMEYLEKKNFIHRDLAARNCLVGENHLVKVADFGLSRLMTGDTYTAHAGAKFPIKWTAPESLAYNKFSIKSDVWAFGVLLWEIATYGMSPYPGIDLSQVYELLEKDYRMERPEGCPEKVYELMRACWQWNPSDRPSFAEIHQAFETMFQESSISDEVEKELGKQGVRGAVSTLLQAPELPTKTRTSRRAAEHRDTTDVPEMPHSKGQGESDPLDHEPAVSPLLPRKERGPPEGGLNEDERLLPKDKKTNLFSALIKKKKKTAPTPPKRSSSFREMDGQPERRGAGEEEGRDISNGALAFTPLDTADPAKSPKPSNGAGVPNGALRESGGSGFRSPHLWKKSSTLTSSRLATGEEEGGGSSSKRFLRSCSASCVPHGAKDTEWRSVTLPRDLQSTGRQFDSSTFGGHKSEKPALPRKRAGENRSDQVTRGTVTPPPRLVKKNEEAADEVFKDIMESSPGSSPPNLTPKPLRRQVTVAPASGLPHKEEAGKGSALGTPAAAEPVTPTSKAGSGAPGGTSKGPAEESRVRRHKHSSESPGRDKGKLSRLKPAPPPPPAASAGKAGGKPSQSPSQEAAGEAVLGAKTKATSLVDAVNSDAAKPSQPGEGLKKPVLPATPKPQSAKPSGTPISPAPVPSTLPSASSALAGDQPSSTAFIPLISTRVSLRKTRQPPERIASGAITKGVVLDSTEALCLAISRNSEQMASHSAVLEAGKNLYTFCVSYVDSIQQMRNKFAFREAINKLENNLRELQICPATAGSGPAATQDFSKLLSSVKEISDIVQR
stated.conditions: at 1 µM
readout: inhibition (%)
Numbers only, in %.

Would you please look over these solved cases?
chem.smiles: Cc1ccc(-c2cc3c(NC(=O)C4CC4)ncnc3o2)cc1
quantity.unit: %
obs.value: 18.3
--
chem.smiles: FC(F)(F)CNc1nccc(-c2cnn3ncccc23)n1
quantity.unit: %
obs.value: 1.46
--
chem.smiles: CS(=O)(=O)Nc1ccc(-c2cc(-c3ccccc3)cc(C(N)=O)c2N)cc1
quantity.unit: %
obs.value: 2.13

Look up inhibition for the entries below, preserving their order.
1. COc1cc(N2CCN(C(C)C)CC2)ccc1Nc1nc(Nc2cccc(F)c2C(=O)O)c2cc[nH]c2n1
2. O=C1Nc2ccccc2/C1=C1\CCc2cc(O)ccc21
3. COc1ccc(Nc2ncc(-c3ccccc3)o2)cc1OC
4. COc1ccc(-c2nn3ncccc3c2-c2ccnc(Nc3ccc(F)c(F)c3)n2)cc1

5.65
9.2
32.7
10.3

Look up inhibition for the entries below, preserving their order.
1. CS(=O)(=O)CCNCc1ccc(-c2ccc3ncnc(Nc4ccc(OCc5cccc(C(F)(F)F)c5)cc4)c3c2)o1
2. OCCCNc1nccc(-c2c(-c3ccc(F)cc3)nn3cc(C(F)(F)F)ccc23)n1
3. COc1cc2c(cc1Nc1nc(Nc3cccc(F)c3C(N)=O)c3cc[nH]c3n1)N(C(=O)CN1CCN(C(C)C)CC1)CC2

1. 2.52
2. 3.11
3. -0.74
